Item-by-item account of log10 of EC50
system under test: T1, cynomolgus monkey NKp46 (full length, on cells) (cynomolgus monkey, UniProt Q95JB9 22-306)
T1 construct: also called cynomolgus monkey NKp46-CHOK1; cynomolgus NKp46-CHOK1
T1 sequence (Q95JB9 22-306): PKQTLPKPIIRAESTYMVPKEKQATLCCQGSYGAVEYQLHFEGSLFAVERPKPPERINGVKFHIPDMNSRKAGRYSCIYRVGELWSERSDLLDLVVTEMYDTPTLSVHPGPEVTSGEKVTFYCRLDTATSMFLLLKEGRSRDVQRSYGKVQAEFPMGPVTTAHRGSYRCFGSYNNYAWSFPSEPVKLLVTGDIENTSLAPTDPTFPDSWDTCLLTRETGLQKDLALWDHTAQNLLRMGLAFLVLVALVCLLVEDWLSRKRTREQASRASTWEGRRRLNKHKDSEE
test method notes: flow cytometry on cynomolgus monkey NKp46-CHOK1 cells
readout: log10 of EC50 (log10 of the value in nM)

{"binder": "H4-PC11 humanized antibody (antibody, human IgG1, V domains shown, not shown: constant region of human IgG1) VH: EVQLVESGGGLVQPGGSLRLSCAPSPYSANSFSMAWFRQAPGKGREGIACIQAESGSTNVAPSVKGRFTISQDNSKNTLYLQMNSLRAEDTAVYYCAAFKRNVGGCELRPEHWRFWGQGTLVTVSS", "log10 of EC50": -0.56}
{"binder": "H2-PA45 humanized antibody (antibody, V domains shown, not shown: constant region of human IgG1) VH: EVQLVESGGGLVQPGGSLRLSCAASGRTFSRLPMAWFRQAPGKGLEFVAAISWSGGSTYYADSMKGRFTISRDNSKNTAYLQMNSLRAEDTAVYYCAAVGDSAPYSATIVYTDARAYAYWGQGTLVTVSS", "log10 of EC50": 0.44}
{"binder": "H3-PA45 humanized antibody (antibody, V domains shown, not shown: constant region of human IgG1) VH: EVQLVESGGGLVQPGGSLRLSCAASGRTFSRLPMAWFRQAPGKGREFVAAISWSGGSTYYADSMKGRFTISRDNSKNTAYLQMNSLRAEDTAVYYCAAVGDSAPYSATIVYTDARAYAYWGQGTLVTVSS", "log10 of EC50": 0.18}
{"binder": "H4-PA45 humanized antibody (antibody, V domains shown, not shown: constant region of human IgG1) VH: EVQLVESGGGLVQPGGSLRLSCAASGRTFSRLPMAWFRQAPGKDREFVAAISWSGGSTYYADSMKGRFTISRDNSKNTAYLQMNSLRAEDTAVYYCAAVGDSAPYSATIVYTDARAYAYWGQGTLVTVSS", "log10 of EC50": 0.18}
{"binder": "H2-PA31 humanized antibody (antibody, human IgG1, V domains shown, not shown: constant region of human IgG1) VH: EVQLVESGGGLVQPGGSLRLSCAVSGRTFSRLPMGWFRQAPGKGLEFVAAISWSSSTTYYADSVKGRFTISRDNSKNTAYLQMNSLRAEDTAVYYCAAVGGSLDYSATVVYTAARAYADWGQGTLVTVSS", "log10 of EC50": 0.32}
{"binder": "H4-PA27 humanized antibody (antibody, human IgG1, V domains shown, not shown: constant region of human IgG1) VH: DVQLVESGGGVVQPGRSLRLSCAASGRTESWYRMGWFRQAPGKGREVVARISGDTNIKYYAGSVKGRFTISRDNSKNTLYLQMSSLRAEDTAVYYCAADRTGATWDYWGQGTLVTVSS", "log10 of EC50": -1.13}
{"binder": "H3-PC11 humanized antibody (antibody, human IgG1, V domains shown, not shown: constant region of human IgG1) VH: EVQLVESGGGLVQPGGSLRLSCAASPYSANSFSMAWFRQAPGKGREGVACIQAESGSTNVAPSVKGRFTISQDNSKNTLYLQMNSLRAEDTAVYYCAAFKRNVGGCELRPEHWRFWGQGTLVTVSS", "log10 of EC50": -0.53}
{"binder": "H5-PC11 humanized antibody (antibody, human IgG1, V domains shown, not shown: constant region of human IgG1) VH: EVQLVESGGGLVQPGGSLRLSCAPSPYSANSFSMAWFRQAPGKEREGIACIQAESGSTNVAPSVKGRFTISQDNSKNTLYLQMNSLRAEDTAVYYCAAFKRNVGGCELRPEHWRFWGQGTLVTVSS", "log10 of EC50": -0.57}
